System: HS 578T breast
Assay: NCI tumour cell line growth inhibition, 48 h
Counter-ions that a name gives are not always drawn. Where a SMILES comes first, the peptide text is derived from it. The star is where a group is joined. Tfa = O=C(C(F)(F)F)*
Mark YES for reported TGI of 30 µM or greater; mark NO for anything smaller.

# Molecule, Qualitative label
data = [
    ("Cc1nc(-c2cccc(Nc3nc(-c4ccc(Cl)cc4)cs3)c2)cs1", "YES"),
    ("C/C=C/[C@H]1O[C@@](O)([C@@H](C)[C@H](O)[C@H](C)[C@H]2OC(=O)/C(OC)=C/C(C)=C/[C@@H](C)[C@@H](O)[C@@H](CC)[C@@H](O)[C@H](C)C/C(C)=C/C=C/[C@@H]2OC)C[C@H](OC2CC(O)C(O)C(C)O2)[C@@H]1C (some centres not stated)", "NO"),
    ("CC1(C)N=C(N)N=C(N)N1c1cccc(CCCCc2cccc(S(=O)(=O)F)c2)c1", "YES"),
    ("O=C(CN1CCN(Cc2ccccc2)CC1)c1ccc2[nH]c(=O)oc2c1", "YES"),
    ("FC(F)(F)Oc1cccc(-c2cnc3ccc(-c4ccncc4)nn23)c1", "NO"),
    ("O=P1(C(O)/C=C/c2ccccc2)N(Cc2ccccc2)[C@H](c2ccccc2)[C@@H](c2ccccc2)N1Cc1ccccc1 (some centres not stated)", "YES"),
    ("Cc1ccc2c(c1)C(C)Cc1c(ncnc1-n1cnc3ccccc31)N2C (configuration not stated)", "NO"),
    ("COc1cc(C2c3[nH]c4ccccc4c3C[C@H]3COC(=O)N23)cc(OC)c1OC (some centres not stated)", "NO"),
    ("CC[C@]12CCCN3CCc4c(n(c5ccccc45)C(=O)C1)[C@@H]32", "YES"),
    ("O=C(O)CC(NC(=O)C(F)(F)F)C(=O)NC(Cc1ccc(O)cc1)C(=O)O (stereo not drawn) (Tfa-Asp-Tyr-OH; configuration not given here)", "YES"),
    ("Cc1ccc(S(=O)(=O)N2CCCN(S(=O)(=O)c3ccc(C)cc3)CCN(S(=O)(=O)c3ccc(C)cc3)CCCSCC2)cc1", "YES"),
    ("COc1ccc(C2=CC(c3ccccc3)n3nnnc3N2)cc1 (configuration not stated)", "YES"),
    ("CN(Cc1cnc2nc(N)nc(N)c2n1)c1ccc(C(=O)NC(CCC(=O)O)C(=O)O)cc1C(F)(F)F (configuration not stated)", "YES"),
    ("C=CCn1c(=O)c2ccccc2[n+]2c(C)c(C(=O)OCC)sc12", "YES"),
    ("C/C(=N\\NC(=O)c1sc(=S)n(C)c1N)c1cc2ccccc2o1", "YES"),
    ("COc1cc(-c2cn(S(=O)(=O)c3ccc(C)cc3)c3ccccc23)nc(-c2cn(S(=O)(=O)c3ccc(C)cc3)c3ccccc23)n1", "YES"),
    ("COc1ccc(OC)c(/C=N/NC(=O)Cc2csc3nc(-c4ccc(Br)cc4)cn23)c1", "YES"),
]

----------
Test system: HOP-92 NSCLC
Assay: NCI tumour cell line growth inhibition, 48 h

# Compound, GI50
data = [
    ("NCCNc1c2c(c(NCCN)c3c(CO)c[nH]c13)C(=O)c1ccccc1C2=O", "24 µM"),
    ("F", "1850 µM"),
    ("CC12CCC3C(CCC4Cc5[nH]c6ccccc6c5CC43C)C1CCC2O (centres undefined)", "> 100 µM"),
    ("COc1cc(C(=O)/C=C/c2c(C)n([O-])c3ccc(C)cc3[n+]2=O)cc(OC)c1OC", "5.56 µM"),
]

----------
Here, each record is paired with measured TGI data.
Test system: COLO 205 colon
Experiment: NCI tumour cell line growth inhibition, 48 h
Where a name gives a salt, the structure may show the parent alone. Where a SMILES comes first, the peptide text is derived from it. The star is where a group is joined. Tfa = O=C(C(F)(F)F)*

# Compound, TGI
records = [
    ("O=C(O)CC(NC(=O)C(F)(F)F)C(=O)NC(Cc1ccc(O)cc1)C(=O)O (stereo not drawn) (Tfa-Asp-Tyr-OH; configuration not given here)", "> 50 µM"),
    ("COc1cc(C=O)ccc1Oc1nnnn1-c1ccccc1", "> 100 µM"),
    ("Clc1ccc(CSC(Cn2ccnc2)c2ccc(Cl)cc2Cl)cc1 (stereo unspecified)", "2.83 µM"),
    ("Nc1ccc2c(c1)C(=O)C(=O)c1c-2nc2ccccn12", "26.6 µM"),
    ("Oc1ccc(-c2csc(NNC3=NC/C(=C/c4ccc5c(c4)OCO5)S3)n2)cc1O", "> 100 µM"),
    ("CCOC(=O)c1c2c(c(O)c3ccccc3c(O)n(Cc3ccc(OC)cc3)c1C)C(=O)C=CC2=O", "> 100 µM"),
    ("O=C(CN1CCN(Cc2ccccc2)CC1)c1ccc2[nH]c(=O)oc2c1", "> 100 µM"),
    ("C/C(CN1C(=O)c2ccccc2C1=O)=N\\NS(=O)(=O)c1ccc(C)cc1", "> 100 µM"),
    ("N/C(=N\\N=C/c1ccccc1O)NO", "> 27.4 µM"),
    ("COC1=C2CC(C)CC(OC)C(O)C(C)/C=C(\\C)C(OC(N)=O)C(OC)/C=C\\C=C(/C)C(=O)NC(=C(C=NC(C)(C)C)C1=O)C2=O (stereo unspecified)", "10.6 µM"),
    ("CCOc1ccc2nc(-c3ccc(O)cc3)sc2c1", "> 100 µM"),
    ("Cc1ccc(S(=O)(=O)OC2CCN(C)CC2)cc1", "42.3 µM"),
    ("O=C(O)c1ccccc1NC(c1ccccc1)c1ccc2cccnc2c1O (stereo unspecified)", "80.9 µM"),
    ("O=C(/C=C/c1ccc(OCCCOc2ccc(/C=C/C(=O)c3ccccc3)cc2)cc1)c1ccccc1", "> 100 µM"),
    ("O=P1(O)C=CC2(CCCC2)O1", "> 100 µM"),
    ("CCOC(=O)Nc1cc2nnc(-c3ccccc3)nc2c(N)n1", "40.5 µM"),
    ("NC(=O)NNCc1ccccc1", "> 100 µM"),
    ("COc1cc(/C=C/c2ccncc2)cc(OC)c1OC", "> 100 µM"),
    ("COc1cc2c3c(n(CCCN)c(=O)c2cc1OC)-c1ccccc1C3=O", "5.72 µM"),
    ("COc1ccccc1/C=C/C1=NN(c2cccc(S(=O)(=O)O)c2)C2(C1)SCC(=O)N2c1nc2ccccc2s1 (stereo unspecified)", "> 100 µM"),
    ("CCCCCCCC1C(C)c2c([nH]c3ccccc23)C2C(=O)N(c3ccc(OC)cc3)C(=O)C21 (stereo unspecified)", "> 10 µM"),
]

----------
Test system: DMS 273 small cell lung
Experiment: NCI tumour cell line growth inhibition, 48 h
Here, each record is paired with measured TGI data.

# Molecule, TGI
data = [
    ("NC1=NC(=O)/C(=C/c2ccccc2[N+](=O)[O-])C(N)=N1", "> 100 µM"),
    ("COc1cccc2c1C(=O)C=CC2=O", "30.8 µM"),
    ("O=C[C@@H](CO)O[C@H](C=O)c1c[nH]c(=O)[nH]c1=O", "265 µM"),
    ("COc1ccc(C2CC(=O)c3c(O)cc(O)cc3O2)cc1O (stereo not drawn)", "> 100 µM"),
    ("CC1CC(C2=CC=CCS2)=Nc2ccccc2S1 (stereo not drawn)", "> 100 µM"),
    ("CCNC(C)Cc1ccccc1 (stereo not drawn)", "> 100 µM"),
    ("CN(C)c1ccc2c(=O)c3ccccc3oc2n1", "> 100 µM"),
    ("COc1ccccc1/C=C(\\C#N)c1ccccc1", "50 µM"),
    ("Cc1ccc(S(=O)(=O)N[C@H](C(=O)O)c2ccccc2)cc1", "> 100 µM"),
    ("O=C(Nc1ccccc1-c1n[nH]c(=S)[nH]c1=O)C(F)(F)F", "> 100 µM"),
    ("Cc1ccc(NC(=O)c2cc3cc(N=Nc4ccc(Br)cc4)ccc3oc2=O)cc1", "> 100 µM"),
    ("C[N+](C)(C)CC1CCCC/C1=N\\OC(=O)c1ccccc1 (stereo not drawn)", "> 100 µM"),
    ("O=[N+]([O-])c1nc(-c2ccccn2)[nH]c1[N+](=O)[O-]", "> 100 µM"),
    ("COC(=O)C1=C(c2ccc(OC)c(OC)c2)OC(c2ccc(OC)c(OC)c2)C1 (stereo not drawn)", "> 100 µM"),
    ("Cc1cn(Cc2ccccc2CCO)c(=S)[nH]c1=O", "> 100 µM"),
    ("N/C(=N\\N=C/c1ccccc1O)NO", "28.7 µM"),
    ("ON/N=C/c1cc2c(cc1Br)OCO2", "> 386 µM"),
    ("CC(C)(C)NNC(=O)/C(=C/c1ccc([N+](=O)[O-])cc1)NC(=O)c1ccccc1", "80 µM"),
    ("CC1(C)CC23C4COC(=O)C2CCC1C3CC4=O (stereo not drawn)", "71 µM"),
    ("C=C(CN(C)C)C(=O)c1ccccc1C", "75.8 µM"),
    ("Nc1ncnc2c1ncn2C1OC(COP(=O)(O)O)C(O)C1O (stereo not drawn)", "> 50 µM"),
    ("C/C(CN1C(=O)c2ccccc2C1=O)=N\\NS(=O)(=O)c1ccc(C)cc1", "> 100 µM"),
    ("CC(NS(=O)(=O)c1ccc([N+](=O)[O-])cc1)C(=O)O (stereo not drawn)", "> 100 µM"),
]

Data origin: PubChem BioAssay (NCI)
